Each recorded value in this set is attributed to PubChem BioAssay (NCI).

Test system: A549/ATCC NSCLC
Assay: NCI-60 one-dose screen, 48 h (100 = growth as untreated, 0 = no growth, -100 = all killed)
Conditions: 10 µM
Method: Growth inhibition of the A549/ATCC human Non-Small Cell Lung tumor cell line is measured as a screen for anti-cancer activity. Cells are grown in 96 well plates and exposed to the test compound for 48 hours. Compounds are tested at a single concentration, which is 10^-5 M for most compounds. The reported endpoint is percent growth (GI% or GIPRCNT), where numbers from 0 - 100% represent growth inhibition, and numbers from -100% - 0 represent cell death. […]
About 83,000 compounds went through this panel and 20% of them were active in at least one assay; those are over-represented in the sample as a whole.
property-measured: growth (%)
Numeric only. Scale: %

Task: Data request, read-out growth, for C=CCn1c(C)nc2cc(Nc3nc(Nc4ccc5nc(C)n(CC=C)c5c4)c4ccccc4n3)ccc21
Result: -67.1

---
Task: Data request, read-out growth, for CCN(CC)CC(O)CNc1ccnc2cc(Cl)c(Cl)cc12 (centres undefined)
Result: 101

Task: Data request, read-out growth, for O=C(c1ccccc1)C(Nc1ccccc1)c1ccccc1 (centres undefined)
Result: 87.4

Task: Data request, read-out growth, for COc1cc(C2C=C(c3ccc(Cl)c(Cl)c3)N=C3SC(C)=CN32)cc(OC)c1OC (centres undefined)
Result: 83.8

Task: Data request, read-out growth, for CN1CCN(c2nc(-c3cccnc3)nc3sc4c(c23)CCCCCC4)CC1
Result: 91.2

Task: Data request, read-out growth, for O=c1oc2cc(OS(=O)(=O)C3CC3)ccc2c2c1CCCCCC2
Result: 69.6

Task: Data request, read-out growth, for O=C(NC1CCCC1)c1ccc(N2CCC(NCc3cccc(C(F)(F)F)c3)CC2)cc1
Result: 93

Task: Data request, read-out growth, for COc1cc(Cl)cc(-c2nn(-c3cccc(NC(=O)Nc4cccc(C(F)(F)F)c4)c3)cc2-c2ccncc2)c1
Result: 8.08

Task: Data request, read-out growth, for COC(=O)[C@]12CC[C@@H](C)[C@H](C)[C@@H]1C1=CC[C@@H]3[C@@]4(C)CC(=O)[C@H](O)[C@@](C)(CO)[C@@H]4C(=O)C[C@@]3(C)[C@]1(C)CC2
Result: -63.6

Task: Data request, read-out growth, for Oc1cc(O)c(Br)cc1Br
Result: 98.9
